Target: thrombin (alpha) (human, UniProt P00734;P00734 P00734:328-363,P00734:364-622)
Experiment: filter; 50 mM Tris pH 7.5, 100 mM NaCl, 1 mM MgCl2, 37 C
Listed binders paired with reported Kd
measuredParameter: Kd (nM)

binder: CAGTCCGTGGTAGGGCAGGTTGGGGTGACTTCGTGGAA (ssDNA) [60-18(38)]
unitString: nM
testValue: 1.9
//
binder: 30-8 (ssDNA) DNA: AGATGCCTGTCGAGCATGCTGTGAATAGGTAGGGTCGGATGGGCTACGGTGTAGCTAAACTGCTTTGTCGACGGG
unitString: nM
testValue: 0.4
//
binder: 30-14 (ssDNA) DNA: AGATGCCTGTCGAGCATGCTGTTGTGGTAGGGTTAGGGATGGTAGCGGTTGTAGCTAAACTGCTTTGTCGACGGG
unitString: nM
testValue: 1
//
binder: 30-16 (ssDNA) DNA: AGATGCCTGTCGAGCATGCTGCCGCTACGAGGGTAGGTGTGGATGCTGCCGTAGCTAAACTGCTTTGTCGACGGG
unitString: nM
testValue: 9.4
//
binder: 30-35 (ssDNA) DNA: AGATGCCTGTCGAGCATGCTGGGAGTGGTAGGAGTAGGGTTGGAGCCGTAGTAGCTAAACTGCTTTGTCGACGGG
unitString: nM
testValue: 1.4
